- procedure-details: protease stability score; higher = more stable; yeast display proteolysis, trypsin and chymotrypsin;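 note: relative to predicted unfolded state with 0 unfolded-like and 1 meaning tenfold more protease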
parameter: protease stability score
Answer field: number only, no words.

Quick one: give measured protease stability score for "DEEEETIRKYIEMMIRLWETGDEKSMLDLFDPDVRTLVNGQHLHGRHALEILLRRIDVRRHVHLHHIDLQGNKVEIDSRLEGTVDGKRDDIELTHHMVKVDGQWVIHNVEVR" 1.02

Quick one: give measured protease stability score for "NEEDEFMEVAVELMERTLKTGDERLLSELVDPNARIEFNGREWHGRKFLETLWRELTKKFPNMKVMFKIEYINSFEGHIEIEGILESNFDGRVESRRVHYNVSKINGRWIIEEIEIQ" 1.35

Please look at the following sequence next.
Quick one: give measured protease stability score for "DEDEETAREMVEHFLQILLTGDEHNLSRLMDPNARVQIGDKTLHGRVNFVKWIEELGLDRVDVQLRRSRVIGNKIHIHGEERFNGVTMESHVDAVKINGQWHIERVEHR" 0.629
